- target or test system: CK1δ/ε
- assay info: Protein kinase assay
- Format: biochemical, porcine
- particulars: 15 μmol/L ATP
- Method: CK1δ/ε (porcine brain, native) and LmCK1 (leishmania major, recombinant, expressed in E. coli as HIS fusion proteins) was assayed as described for CDK1 but in buffer C and using 25 μM CKS peptide ([…]pSAYSITA), a CK1-specific substrate.
pIC50: −log10 of the molar value.
pIC50 reference

- compound: "CN1C(=O)N=C(Nc2nc(Cc3ccc4c(c3)OCO4)cn2C)C1=O"
  pIC50: "< 5.00"
- compound: "NC1=N/C(=C\\CCNC(=O)c2cc(Br)c(Br)[nH]2)C(=O)N1 [Dispacamide]"
  pIC50: "< 5.00"
- compound: "NC1=NC(=O)/C(=C2\\CCNC(=O)c3[nH]cc(Br)c32)N1"
  pIC50: 7.51
- compound: "Cc1ccc(C=C2N=C(N)NC2=O)s1"
  pIC50: "< 5.00"
- compound: "NC1=NC(=Cc2cccc(Br)c2)C(=O)N1"
  pIC50: "≤ 5.00"
- compound: "NC1=NC(=Cc2c[nH]nc2-c2ccccc2)C(=O)N1"
  pIC50: 5.44
- compound: "COc1ccc(C=C2N=C(N)NC2=O)cc1F"
  pIC50: "≤ 5.00"
- compound: "CN1C(=N)N=C(Nc2nc(Cc3ccc4c(c3)OCO4)cn2C)C1=O"
  pIC50: "< 5.00"
- compound: "NC1=NC(=O)/C(=C2\\CCNC(=O)c3[nH]c(Br)cc32)N1 [Hymenialdisine, reference compound]"
  pIC50: 8.43
- compound: "CN1C(=O)/C(=C/c2ccc3c(c2)OCO3)N=C1N"
  pIC50: "< 5.00"
- compound: "COc1cc(C=C2N=C(N)NC2=O)ccc1F"
  pIC50: "< 5.00"
- compound: "CN(C)CCOc1ccc(C=C2N=C(N)NC2=O)cc1"
  pIC50: "< 5.00"
- compound: "NC1=NC(=Cc2ccc(-n3ccnc3)cc2)C(=O)N1"
  pIC50: "< 5.00"
- compound: "NC1=NC(=Cc2ccccc2N2CCOCC2)C(=O)N1"
  pIC50: "< 5.00"
- compound: "COc1cc(/C=C2\\N=C(N)NC2=O)ccc1O"
  pIC50: 5.48
- compound: "O=C1NC(Nc2ccccc2)=N/C1=C\\c1ccc2c(c1)OCO2 [Leucettine L41, reference compound]"
  pIC50: 5.38
- compound: "CN1C(=N)N(C)/C(=C\\c2c[nH]c3ccccc23)C1=O"
  pIC50: "< 5.00"
- compound: "NC1=N/C(=C\\c2ccc(O)c(O)c2)C(=O)N1"
  pIC50: "< 5.00"
- compound: "NC1=NC(=Cc2cc(Br)cs2)C(=O)N1"
  pIC50: "< 5.00"

###

- target or test system: DYRK1A (Homo sapiens)
pIC50: −log10 of the molar value.
Kind request: treat 6 as inclusive, so pIC50 at 6 or higher is 1.0, anything lower is 0.0.

- compound: "NC1=NC(=Cc2cc(Br)cs2)C(=O)N1 [PAC11]"
  assigned label: 0.0
- compound: "COc1cc(/C=C2\\N=C(N)NC2=O)ccc1O [Polyandrocarpamine A]"
  assigned label: 1.0
- compound: "NC1=NC(=Cc2ccccc2N2CCOCC2)C(=O)N1 [PAC7]"
  assigned label: 0.0
- compound: "Cc1ccc(C=C2N=C(N)NC2=O)s1 [PAC10]"
  assigned label: 0.0
- compound: "COc1cc(/C=C2\\N=C(N)NC2=O)ccc1O [PAC1, polyandrocarpamine A]"
  assigned label: 1.0
- compound: "NC1=NC(=O)/C(=C2\\CCNC(=O)c3[nH]c(Br)cc32)N1 [Hymenialdisine, reference compound]"
  assigned label: 1.0
- compound: "COc1cc(/C=C2\\N=C(N)NC2=O)ccc1O [PAC12, polyandrocarpamine A]"
  assigned label: 1.0
- compound: "NC1=N/C(=C\\CCNC(=O)c2cc(Br)c(Br)[nH]2)C(=O)N1 [Dispacamide]"
  assigned label: 0.0
- compound: "NC1=NC(=Cc2c[nH]nc2-c2ccccc2)C(=O)N1 [PAC9]"
  assigned label: 0.0
- compound: "CN1C(=N)N(C)/C(=C\\c2c[nH]c3ccccc23)C1=O [Aplysinopsine]"
  assigned label: 0.0
- compound: "NC1=NC(=Cc2cccc(Br)c2)C(=O)N1 [PAC3]"
  assigned label: 0.0

###

- target or test system: DYRK3 (Homo sapiens, UniProt O43781)
- Sequence (O43781 whole entry): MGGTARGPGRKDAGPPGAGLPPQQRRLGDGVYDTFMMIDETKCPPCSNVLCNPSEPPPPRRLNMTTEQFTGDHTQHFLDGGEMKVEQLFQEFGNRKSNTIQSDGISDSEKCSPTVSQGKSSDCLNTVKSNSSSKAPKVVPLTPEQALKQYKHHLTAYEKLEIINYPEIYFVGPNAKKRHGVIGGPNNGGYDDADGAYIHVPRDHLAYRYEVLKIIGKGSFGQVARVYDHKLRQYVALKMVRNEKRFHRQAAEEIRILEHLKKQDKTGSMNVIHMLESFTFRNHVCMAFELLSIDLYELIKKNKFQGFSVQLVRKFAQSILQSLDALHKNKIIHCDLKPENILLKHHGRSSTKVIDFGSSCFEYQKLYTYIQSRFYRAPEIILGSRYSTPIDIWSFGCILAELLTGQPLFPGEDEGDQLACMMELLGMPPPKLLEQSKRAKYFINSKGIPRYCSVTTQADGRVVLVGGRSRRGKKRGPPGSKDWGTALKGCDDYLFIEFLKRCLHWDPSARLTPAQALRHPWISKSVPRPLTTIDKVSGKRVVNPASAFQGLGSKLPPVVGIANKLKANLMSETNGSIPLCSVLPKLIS
- assay info: Protein kinase assay
- Type: biochemical
- particulars: 15 μmol/L ATP; read-out: IC50 DYRK3
IC50 reference

- molecule: "NC1=NC(=Cc2c[nH]nc2-c2ccccc2)C(=O)N1"
  target or test system: "DYRK3 (Homo sapiens, UniProt O43781)"
  units label: "nM"
  comparison symbol: ">"
  IC50: 10000
- molecule: "NC1=NC(=Cc2ccc(-n3ccnc3)cc2)C(=O)N1"
  target or test system: "DYRK3 (Homo sapiens, UniProt O43781)"
  units label: "nM"
  comparison symbol: ">"
  IC50: 10000
- molecule: "NC1=NC(=O)/C(=C2\\CCNC(=O)c3[nH]c(Br)cc32)N1 [Hymenialdisine, reference compound]"
  target or test system: "DYRK3 (Homo sapiens, UniProt O43781)"
  units label: "nM"
  comparison symbol: "="
  IC50: 4.9
- molecule: "COc1cc(/C=C2\\N=C(N)NC2=O)ccc1O [PAC12, polyandrocarpamine A]"
  target or test system: "DYRK3 (Homo sapiens, UniProt O43781)"
  units label: "nM"
  comparison symbol: "="
  IC50: 340
- molecule: "CN(C)CCOc1ccc(C=C2N=C(N)NC2=O)cc1"
  target or test system: "DYRK3 (Homo sapiens, UniProt O43781)"
  units label: "nM"
  comparison symbol: ">"
  IC50: 10000
- molecule: "CN1C(=O)N=C(Nc2nc(Cc3ccc4c(c3)OCO4)cn2C)C1=O"
  target or test system: "DYRK3 (Homo sapiens, UniProt O43781)"
  units label: "nM"
  comparison symbol: ">"
  IC50: 10000
- molecule: "COc1ccc(C=C2N=C(N)NC2=O)cc1F"
  target or test system: "DYRK3 (Homo sapiens, UniProt O43781)"
  units label: "nM"
  comparison symbol: "="
  IC50: 5100
- molecule: "NC1=N/C(=C\\c2ccc(O)c(O)c2)C(=O)N1 [PAC2, polyandrocarpamine B]"
  target or test system: "DYRK3 (Homo sapiens, UniProt O43781)"
  units label: "nM"
  comparison symbol: "="
  IC50: 900
- molecule: "NC1=NC(=Cc2ccccc2N2CCOCC2)C(=O)N1"
  target or test system: "DYRK3 (Homo sapiens, UniProt O43781)"
  units label: "nM"
  comparison symbol: ">"
  IC50: 10000
- molecule: "NC1=NC(=Cc2cc(Br)cs2)C(=O)N1"
  target or test system: "DYRK3 (Homo sapiens, UniProt O43781)"
  units label: "nM"
  comparison symbol: "="
  IC50: 2400
- molecule: "NC1=N/C(=C\\CCNC(=O)c2cc(Br)c(Br)[nH]2)C(=O)N1 [Dispacamide]"
  target or test system: "DYRK3 (Homo sapiens, UniProt O43781)"
  units label: "nM"
  comparison symbol: ">"
  IC50: 10000
- molecule: "COc1cc(/C=C2\\N=C(N)NC2=O)ccc1O [PAC1, polyandrocarpamine A]"
  target or test system: "DYRK3 (Homo sapiens, UniProt O43781)"
  units label: "nM"
  comparison symbol: "="
  IC50: 280
- molecule: "NC1=N/C(=C\\c2ccc(O)c(O)c2)C(=O)N1 [PAC13, polyandrocarpamine B]"
  target or test system: "DYRK3 (Homo sapiens, UniProt O43781)"
  units label: "nM"
  comparison symbol: "="
  IC50: 680
- molecule: "COc1cc(/C=C2\\N=C(N)NC2=O)ccc1O [Polyandrocarpamine A]"
  target or test system: "DYRK3 (Homo sapiens, UniProt O43781)"
  units label: "nM"
  comparison symbol: "="
  IC50: 170
- molecule: "COc1cc(C=C2N=C(N)NC2=O)ccc1F"
  target or test system: "DYRK3 (Homo sapiens, UniProt O43781)"
  units label: "nM"
  comparison symbol: "="
  IC50: 5700
- molecule: "NC1=NC(=Cc2cccc(Br)c2)C(=O)N1"
  target or test system: "DYRK3 (Homo sapiens, UniProt O43781)"
  units label: "nM"
  comparison symbol: ">"
  IC50: 10000

###

- target or test system: CLK3 (Mus musculus)
- Sequence (O35492 whole entry): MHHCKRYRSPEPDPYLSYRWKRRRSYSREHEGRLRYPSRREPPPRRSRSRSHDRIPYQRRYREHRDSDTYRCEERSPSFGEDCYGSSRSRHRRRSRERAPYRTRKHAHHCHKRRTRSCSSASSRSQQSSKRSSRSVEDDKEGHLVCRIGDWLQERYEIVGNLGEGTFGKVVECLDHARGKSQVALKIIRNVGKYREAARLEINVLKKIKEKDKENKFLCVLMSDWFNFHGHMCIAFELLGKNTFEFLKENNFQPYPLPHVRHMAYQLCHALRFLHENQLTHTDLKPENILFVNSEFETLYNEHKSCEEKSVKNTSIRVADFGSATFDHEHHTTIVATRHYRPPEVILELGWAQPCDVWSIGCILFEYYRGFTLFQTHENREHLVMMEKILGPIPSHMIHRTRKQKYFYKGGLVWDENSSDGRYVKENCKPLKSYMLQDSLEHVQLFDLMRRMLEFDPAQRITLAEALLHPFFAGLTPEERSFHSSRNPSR
- assay info: Protein kinase assay
- particulars: IC50 CLK3, 15 μmol/L ATP
One threshold, 3000 nM, splits the recorded IC50 values: lower ones are True, equal or higher ones are False.

- compound: "CN1C(=N)N=C(Nc2nc(Cc3ccc4c(c3)OCO4)cn2C)C1=O"
  assigned label: "False"
- compound: "COc1cc(/C=C2\\N=C(N)NC2=O)ccc1O [PAC12, polyandrocarpamine A]"
  assigned label: "True"
- compound: "CN1C(=O)/C(=C/c2ccc3c(c2)OCO3)N=C1N"
  assigned label: "False"
- compound: "CN1C(=O)N=C(Nc2nc(Cc3ccc4c(c3)OCO4)cn2C)C1=O"
  assigned label: "False"
- compound: "NC1=NC(=O)/C(=C2\\CCNC(=O)c3[nH]c(Br)cc32)N1 [Hymenialdisine, reference compound]"
  assigned label: "True"
- compound: "NC1=N/C(=C\\CCNC(=O)c2cc(Br)c(Br)[nH]2)C(=O)N1 [Dispacamide]"
  assigned label: "False"
- compound: "NC1=NC(=O)/C(=C2\\CCNC(=O)c3[nH]cc(Br)c32)N1"
  assigned label: "True"
- compound: "COc1cc(/C=C2\\N=C(N)NC2=O)ccc1O [Polyandrocarpamine A]"
  assigned label: "True"
- compound: "NC1=N/C(=C\\c2ccc(O)c(O)c2)C(=O)N1 [PAC13, polyandrocarpamine B]"
  assigned label: "False"
